Each record here notes measured pKd.
# System: human integrin αvβ5 (Homo sapiens, UniProt P06756+P18084)
# Sequence (P06756 31-1048): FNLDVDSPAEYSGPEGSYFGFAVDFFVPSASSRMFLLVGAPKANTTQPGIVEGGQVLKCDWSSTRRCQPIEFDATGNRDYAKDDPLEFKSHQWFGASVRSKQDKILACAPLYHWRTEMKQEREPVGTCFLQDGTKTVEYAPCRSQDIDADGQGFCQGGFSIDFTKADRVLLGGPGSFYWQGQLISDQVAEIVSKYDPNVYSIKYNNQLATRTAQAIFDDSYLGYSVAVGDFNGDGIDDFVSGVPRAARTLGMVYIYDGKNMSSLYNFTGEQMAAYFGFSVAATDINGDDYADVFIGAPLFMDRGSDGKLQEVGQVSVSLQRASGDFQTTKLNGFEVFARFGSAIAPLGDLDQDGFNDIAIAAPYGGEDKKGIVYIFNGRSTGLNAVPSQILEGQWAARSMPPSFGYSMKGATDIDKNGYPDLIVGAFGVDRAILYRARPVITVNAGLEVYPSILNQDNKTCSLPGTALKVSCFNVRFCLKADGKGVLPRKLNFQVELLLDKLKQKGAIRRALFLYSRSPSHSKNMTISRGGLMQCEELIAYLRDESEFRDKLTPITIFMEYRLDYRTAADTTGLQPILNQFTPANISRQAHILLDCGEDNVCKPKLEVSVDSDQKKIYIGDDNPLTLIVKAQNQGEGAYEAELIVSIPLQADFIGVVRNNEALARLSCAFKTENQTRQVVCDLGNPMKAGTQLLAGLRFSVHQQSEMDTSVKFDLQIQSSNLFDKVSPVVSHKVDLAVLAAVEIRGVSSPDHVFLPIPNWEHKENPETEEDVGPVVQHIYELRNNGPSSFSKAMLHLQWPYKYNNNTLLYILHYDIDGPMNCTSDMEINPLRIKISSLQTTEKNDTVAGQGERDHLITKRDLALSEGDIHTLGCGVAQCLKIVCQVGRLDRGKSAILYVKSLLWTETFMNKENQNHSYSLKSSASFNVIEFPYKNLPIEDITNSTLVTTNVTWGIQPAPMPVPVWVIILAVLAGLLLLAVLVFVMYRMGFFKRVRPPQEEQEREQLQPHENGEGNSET
# Sequence (P18084 24-799): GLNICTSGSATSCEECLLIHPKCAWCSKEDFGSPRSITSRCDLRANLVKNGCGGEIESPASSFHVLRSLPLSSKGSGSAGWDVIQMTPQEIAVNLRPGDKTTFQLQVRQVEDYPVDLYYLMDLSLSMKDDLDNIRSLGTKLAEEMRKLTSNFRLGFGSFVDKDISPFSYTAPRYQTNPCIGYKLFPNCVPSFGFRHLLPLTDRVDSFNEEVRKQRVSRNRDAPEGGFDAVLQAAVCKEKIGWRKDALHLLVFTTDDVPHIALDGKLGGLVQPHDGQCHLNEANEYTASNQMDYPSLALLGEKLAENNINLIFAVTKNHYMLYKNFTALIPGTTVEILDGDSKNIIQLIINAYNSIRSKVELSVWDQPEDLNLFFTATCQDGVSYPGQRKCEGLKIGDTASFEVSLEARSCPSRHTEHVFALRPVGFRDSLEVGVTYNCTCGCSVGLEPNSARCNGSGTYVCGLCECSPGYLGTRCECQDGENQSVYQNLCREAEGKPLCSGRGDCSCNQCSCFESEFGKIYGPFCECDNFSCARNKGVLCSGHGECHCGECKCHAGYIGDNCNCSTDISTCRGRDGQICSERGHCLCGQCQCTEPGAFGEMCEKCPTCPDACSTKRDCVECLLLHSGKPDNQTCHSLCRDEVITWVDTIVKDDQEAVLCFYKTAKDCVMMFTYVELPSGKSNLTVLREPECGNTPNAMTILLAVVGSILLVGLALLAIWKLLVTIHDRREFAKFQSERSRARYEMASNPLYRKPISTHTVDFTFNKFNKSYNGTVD
# Assay Procedure: Evaluation of integrin binding property (surface plasmon resonance, Biacore 3000, immobilized cyclic peptide)
# Test Context: surface plasmon resonance, immobilized cyclic peptide, human integrin αvβ5; read-out: Binding activity (integrin binding property, dissociation constant rank)
pKd: −log10 of the molar value. Starred links: 1 amine or outer side, 2 acyl side, 3 side chain; linkers in the order of their positions; H or OH if unused. Positions of bridges follow the written chain, without caps; N, C: chain ends. Non-standard residues stand in square brackets, D forms with d. Residues, ends and D or L forms follow the SMILES beside them. hCys = N[C@@H](CCS)C(=O)O; Dab = NCC[C@H](N)C(=O)O; X1 = O=C(C[*:2])[*:1]; X2 = O=C(C[*:1])[*:2]

Worked cases, answers included:
CC(C)[C@@H]1NC(=O)[C@@H](NC(=O)[C@H](CCCCN)NC(=O)[C@H](CCCCN)NC(=O)[C@@H](N)CCCCN)CCNC(=O)CSC[C@@H](C(=O)O)NC(=O)[C@H](Cc2ccccc2)NC(=O)[C@H](CC(N)=O)NC(=O)[C@H](CC(=O)O)NC(=O)CNC(=O)[C@H](CCCNC(=N)N)NC(=O)[C@@H]2CCCN2C1=O [Cyclic peptide 143, KKK(Dab(acetyl))VPRGDNF(C)] (H-KKK[Dab]VPRGDNFC-OH; linker 4-12 via X1) :: > 7.30
CC(C)[C@@H]1NC(=O)[C@@H](NC(=O)[C@H](C)NC(=O)[C@H](CCCCN)NC(=O)[C@H](CCCCN)NC(=O)[C@@H](N)CCCCN)CCNC(=O)CSC[C@@H](C(=O)N[C@@H](C)C(=O)O)NC(=O)[C@H](C)NC(=O)[C@H](Cc2ccccc2)NC(=O)[C@H]([C@@H](C)O)NC(=O)[C@H](CC(=O)O)NC(=O)CNC(=O)[C@H](CCCNC(=N)N)NC(=O)[C@@H]2CCCN2C1=O [Cyclic peptide 142, KKKA(Dab(acetyl))VPRGDTFA(C)A] (H-KKKA[Dab]VPRGDTFACA-OH; linker 5-14 via X1) :: > 7.30
C[C@@H]1NC(=O)[C@H](Cc2ccccc2)NC(=O)[C@H]([C@@H](C)O)NC(=O)[C@H](CC(=O)O)NC(=O)CNC(=O)[C@H](CCCNC(=N)N)NC(=O)[C@@H]2CCCN2C(=O)[C@H](CC(=O)O)NC(=O)[C@@H](NC(=O)[C@H](CCCCN)NC(=O)[C@H](CCCCN)NC(=O)[C@@H](N)CCCCN)CCSCC(=O)NCC[C@@H](C(=O)O)NC1=O [Cyclic peptide 144, KKK-(Hcy)-DPRGDTFA(Dab(acetyl))] (H-KKK[hCys]DPRGDTFA[Dab]-OH; linker 4-13 via X2) :: > 7.30

Request: pKd, test system human integrin αvβ5 (Homo sapiens, UniProt P06756+P18084), entry C[C@H](NC(=O)[C@H](CCCCN)NC(=O)[C@H](CCCCN)NC(=O)[C@@H](N)CCCCN)C(=O)N[C@H]1CCSCC(=O)NCC[C@@H](C(=O)O)NC(=O)[C@H](C)NC(=O)[C@H](Cc2ccccc2)NC(=O)[C@H]([C@@H](C)O)NC(=O)[C@H](CC(=O)O)NC(=O)CNC(=O)[C@H](CCCNC(=N)N)NC(=O)[C@@H]2CCCN2C(=O)[C@H]([C@@H](C)O)NC1=O [Cyclic peptide 158, KKKA-(Hcy)-TPRGDTFA(Dab(acetyl))] (H-KKKA[hCys]TPRGDTFA[Dab]-OH; linker 5-14 via X2) > 7.30

Repeat with CC(C)[C@@H]1NC(=O)[C@@H](NC(=O)[C@H](C)NC(=O)[C@H](CCCCN)NC(=O)[C@H](CCCCN)NC(=O)[C@@H](N)CCCCN)CCNC(=O)CSCC[C@@H](C(=O)N[C@@H](C)C(=O)O)NC(=O)[C@H](C)NC(=O)[C@H](Cc2ccccc2)NC(=O)[C@H]([C@@H](C)O)NC(=O)[C@H](CC(=O)O)NC(=O)CNC(=O)[C@H](CCCNC(=N)N)NC(=O)[C@@H]2CCCN2C1=O [Cyclic peptide 122, KKKA(Dab(acetyl))VPRGDTFA-(Hcy)-A] (H-KKKA[Dab]VPRGDTFA[hCys]A-OH; linker 5-14 via X1) > 7.30

====

# System: human integrin αvβ5 (Homo sapiens, UniProt P06756+P18084)
# Assay Procedure: Evaluation of integrin binding property (surface plasmon resonance, Biacore 3000, immobilized cyclic peptide)
# Test Context: SPR, 25° C., HEPES buffer with 5 mM magnesium chloride, integrin 30-1,000 nM; read-out: Performance evaluation: Binding activity (dissociation constant between the cyclic peptide and human integrin αvβ5)
Starred links: 1 amine or outer side, 2 acyl side, 3 side chain; linkers in the order of their positions; H or OH if unused. Positions of bridges follow the written chain, without caps; N, C: chain ends. Non-standard residues stand in square brackets, D forms with d. Residues, ends and D or L forms follow the SMILES beside them. hCys = N[C@@H](CCS)C(=O)O; Dab = NCC[C@H](N)C(=O)O; X2 = O=C(C[*:1])[*:2]
Metric Name: Kd

Look at this molecule and give its reported Kd. CC[C@H](C)[C@@H]1NC(=O)[C@@H](NC(=O)[C@H](C)NC(=O)[C@H](CCCCN)NC(=O)[C@H](CCCCN)NC(=O)[C@@H](N)CCCCN)CCSCC(=O)NCC[C@@H](C(=O)NCC(=O)O)NC(=O)[C@H](C)NC(=O)[C@H](Cc2ccccc2)NC(=O)[C@H]([C@@H](C)O)NC(=O)[C@H](CC(=O)O)NC(=O)CNC(=O)[C@H](CCCNC(=N)N)NC(=O)[C@@H]2CCCN2C1=O [Cyclic peptide 85, KKKA-(Hcy)-IPRGDTFA(Dab(acetyl))G] (H-KKKA[hCys]IPRGDTFA[Dab]G-OH; linker 5-14 via X2) < 50 nM

Moving on to the next molecule: CC[C@H](C)[C@@H]1NC(=O)[C@@H](NC(=O)[C@H](CCCCN)NC(=O)[C@H](CCCCN)NC(=O)[C@@H](N)CCCCN)CCSCC(=O)NCC[C@@H](C(=O)N[C@@H](C)C(=O)O)NC(=O)[C@H](CCCNC(=N)N)NC(=O)[C@H](Cc2ccccc2)NC(=O)[C@H](CO)NC(=O)[C@H](CC(=O)O)NC(=O)CNC(=O)[C@H](CCCNC(=N)N)NC(=O)[C@@H]2CCCN2C1=O [Cyclic peptide 25, KKK-(Hcy)-IPRGDSFR(Dab(acetyl))A] (H-KKK[hCys]IPRGDSFR[Dab]A-OH; linker 4-13 via X2) 50 to 100 nM

====

# System: human integrin αvβ5 (Homo sapiens, UniProt P06756+P18084)
# Assay Procedure: Evaluation of integrin binding property (surface plasmon resonance, Biacore 3000, immobilized cyclic peptide)
# Test Context: SPR, 25° C., HEPES buffer with 5 mM magnesium chloride, integrin 30-1,000 nM; read-out: Performance evaluation: Binding activity (dissociation constant between the cyclic peptide and human integrin αvβ5)
pKd: −log10 of the molar value. Starred links: 1 amine or outer side, 2 acyl side, 3 side chain; linkers in the order of their positions; H or OH if unused. Positions of bridges follow the written chain, without caps; N, C: chain ends. Non-standard residues stand in square brackets, D forms with d. Residues, ends and D or L forms follow the SMILES beside them. hCys = N[C@@H](CCS)C(=O)O; Dab = NCC[C@H](N)C(=O)O; X2 = O=C(C[*:1])[*:2]
The entries below come with measured pKd values attached.

Look at this molecule and give its reported pKd. CC[C@H](C)[C@@H]1NC(=O)[C@@H](NC(=O)[C@H](C)NC(=O)[C@H](CCCCN)NC(=O)[C@H](CCCCN)NC(=O)[C@@H](N)CCCCN)CCSCC(=O)NCC[C@@H](C(=O)N[C@@H](C)C(=O)O)NC(=O)[C@H](CCCNC(=N)N)NC(=O)[C@H](Cc2ccccc2)NC(=O)[C@H]([C@@H](C)O)NC(=O)[C@H](CC(=O)O)NC(=O)CNC(=O)[C@H](CCCNC(=N)N)NC(=O)[C@@H]2CCCN2C1=O [Cyclic peptide 56, KKKA-(Hcy)-IPRGDTFR(Dab(acetyl))A] (H-KKKA[hCys]IPRGDTFR[Dab]A-OH; linker 5-14 via X2) > 7.30

Okay, and N=C(N)NCCC[C@@H]1NC(=O)[C@H](Cc2ccc(O)cc2)NC(=O)[C@H](CC(N)=O)NC(=O)[C@H](CC(=O)O)NC(=O)CNC(=O)[C@H](CCCNC(=N)N)NC(=O)[C@@H]2CCCN2C(=O)[C@H](CCC(=O)O)NC(=O)[C@@H](NC(=O)[C@H](CCCCN)NC(=O)[C@H](CCCCN)NC(=O)[C@@H](N)CCCCN)CCSCC(=O)NCC[C@@H](C(=O)O)NC1=O [Cyclic peptide 44, KKK-(Hcy)-EPRGDNYR(Dab(acetyl))] (H-KKK[hCys]EPRGDNYR[Dab]-OH; linker 4-13 via X2) ? 7.00 to 7.30
